System: PIP5K1A;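 note: KINOMEscan kinase panel screen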
Details: concentration: 1 μM, replicates: in singlicate; n = 1
Please mark Fulfilled if the recorded %Inh is equal to or greater than 30%, and Not fulfilled if it falls below.

O=c1cc(N2CCOCC2)nc2n(Cc3cccc4ccccc34)ccn12 [GSK2333389]	Not fulfilled
CC(C)(C)n1cnc2c(N)ncnc21 [SKF-97359]	Fulfilled
COc1ccc(Nc2nccc(N3CCC(NC(=O)Nc4cc(C)ccc4C)C3)n2)cc1 (stereo not drawn) [GSK1379741]	Not fulfilled

Please check the record Cl.Nc1ncnc2occ(-c3ccc(NC(=O)Nc4cc(C(F)(F)F)ccc4F)cc3)c12 [SB-707548] and state if its %Inh is at or above 30%.
Not fulfilled

Again, but for COc1ccc(Nc2ncc(C#N)c(Nc3ccccc3C(N)=O)n2)cc1N1CCN(C)CC1.Cl [GSK1558669]
Fulfilled

Cool, now "Cc1cccc(-c2nc(-c3ccc(S(C)(=O)=O)cc3)sc2-c2ccncc2)c1"
Not fulfilled

Field entry: CC(C)Oc1ccc2c(-c3ccnc(Nc4ccc(N5CCN(C)CC5)cc4)n3)cnn2n1 [GW696155]
Not fulfilled

# repeat for Cc1ccc(NC(=O)c2ccnc(N3CCN(C)CC3)c2)cc1-c1ccc(C(=O)NCC2CC2)cc1 [GW775604]
Not fulfilled

And the next one, NS(=O)(=O)c1cccc(-c2ccc3ncc(N4CCOCC4)nc3c2)c1 [GSK1535721] ?
Not fulfilled

// repeat for "N#Cc1c(N2CCOCC2)sc(-c2ccn[nH]2)c1-c1ccc(Cl)cc1" and report
Not fulfilled

Here is the next compound: COc1cc(Nc2nccc(N3CCC(NC(=O)c4cccc(NC(C)=O)c4)C3)n2)cc(OC)c1OC (stereo not drawn) [GSK1379754]
Not fulfilled
